meta.source: PubChem BioAssay (NCI)

# System: SK-MEL-2 melanoma
# TEST NAME: NCI-60 one-dose screen, 48 h
# MEASUREMENT PARAMETERS: 10 µM unless noted
This is part of a sample that, as a whole, favours compounds with a hit. Of some 83,000 tested, about 20% had one in any assay. Active and inactive are the calls of the source. Rule for the calls: active = growth percent below 10; inactive = the rest.
Possible outcomes: active, inactive

MOLECULE	CLASS ASSIGNMENT
Nc1ccccc1C#C/C=C\C#Cc1cccc(O)c1	inactive
CCn1cc(C2NC(=O)c3cc(F)ccc3N2)c2cccc(Cl)c21 (configuration not stated)	inactive
COc1ccc(C(=O)/C=C/c2ccc(/C=C/c3cc(OC)c(OC)c(OC)c3)cc2)cc1	inactive
COc1ccc(C(=O)c2cc(OC)c(OC)c(OC)c2)cc1/C=C/C(=O)c1ccc(O)cc1	inactive
CCOC(=O)c1cc(/C(=N\O)c2cc(OC)c(OC)c(OC)c2)n2c(C)cccc12	inactive
COc1ccc(OC)c(/C=C2\Oc3cc(OCCN4CCCC4)ccc3C2=O)c1	inactive
O=C(CN1CCN(c2cc3c(cc2F)c(=O)c(C(=O)O)cn3C2CC2)CC1)Nc1ccc(C(=O)/C=C/c2ccc(Cl)cc2)cc1	inactive
Nc1c(C(=O)Nc2cccc(C(F)(F)F)c2)sc2nc3c(cc12)CCCCCC3	inactive
COC(=O)c1cc(-c2cccs2)c(C#N)c(N)c1C#N	inactive
O=C(C[N+](=O)[O-])c1ccc(Cl)cc1	inactive
COc1ccc(/C=c2\sc3n(c2=O)C2C(NN=3)N(C)C(=O)N2C)cc1 (configuration not stated)	inactive
COc1cccc(/C=C/C(=O)c2sc(Nc3ccc(O)cc3)nc2C)c1	inactive
CC(C)(C)OC(=O)N[C@@H](Cc1ccccc1)C(=O)N(Cc1ccccc1)C1(C(=O)NCc2ccccc2)CCN(Cc2ccccc2)CC1	inactive
O=C1CCCCC=C1C[N+](=O)[O-]	inactive
CCN(C(=O)c1cc2ccccc2[nH]1)[C@H]1CCC[C@@H](NCc2ccc(OC)cc2)C1	inactive
Cc1oc2nc[nH]c(=O)c2c1C(=O)/C=C/c1ccc(Cl)cc1Cl	inactive
O=C(CN1CCN(c2cc3c(cc2F)c(=O)c(C(=O)O)cn3C2CC2)CC1)Nc1ccc(C(=O)/C=C/c2ccccc2)cc1	inactive
Nc1c(C(=O)Nc2cccc(C(F)(F)F)c2)sc2nc3c(cc12)CCCCC3	inactive
O=C(COc1ccccc1)N1N=C(c2ccc(Cl)cc2)CC1c1c[nH]c2ccccc12 (configuration not stated)	inactive
CC[C@H](C)[C@H]1NC(=O)[C@@H](N[C@](C)(O)[C@@H](N)CC(C)C)[C@@H](C)OC(=O)[C@H](Cc2ccc(OC)cc2)N(C)C(=O)[C@@H]2CCCN2C(=O)[C@H](CC(C)C)NC(=O)[C@@H](C)C(=O)[C@H](C(C)C)OC(=O)C[C@@H]1O	active
O=c1oc2c([nH]c3ccc4ccccc4c32)c2ccccc12	inactive
Cc1cc(C)c(S(=O)(=O)N2CCN(c3cc4c(cc3F)c(=O)c(C(=O)O)cn4C3CC3)CC2)c(C)c1	inactive
CCCCCCCCCCCCCCCCCCOc1cccc(CCOP(=O)(O)OCC[N+](C)(C)C)c1	inactive
NC(=S)NN=C1CCCCC1	inactive
CCNc1nc(N2CC(=O)Nc3cc(OC)ccc32)c2ccccc2n1	inactive
COc1ccc(-c2nc3sccn3c2-c2ccnc(NCCCNS(=O)(=O)c3ccc(C)cc3)n2)cc1	inactive
COc1cc(C2C=C(C)N=C3SC=CN32)cc(OC)c1OC (configuration not stated)	inactive
CCC(=O)Oc1cc(/C=C/C(=O)O[C@H]2C[C@H]3CN4CCc5c([nH]c6cc(OC)ccc56)[C@@H]4C[C@@H]3[C@@H](C(=O)OC)[C@@H]2OC)ccc1OC	inactive
COc1ccc(C2CC(c3cccs3)=NN2c2ccc(S(=O)(=O)NC(=O)Nc3ccc(C)cc3)cc2)cc1 (configuration not stated)	inactive
CCC(=O)Oc1ccc2c(c1)CC[C@@H]1[C@@H]2CC[C@]2(C)C[C@H](OC(=O)CC)C[C@@H]12	inactive
CCC1CCc2nc3sc(C(=O)Nc4ccccc4F)c(N)c3cc2C1 (configuration not stated)	inactive
Cc1cc2c(C(C)C)c(O)c(O)c(C=NCCCCCCC(=O)O)c2c(O)c1-c1c(C)cc2c(C(C)C)c(O)c(O)c(C=NCCCCCCC(=O)O)c2c1O	inactive
COc1cc(C(=O)CCCl)ccc1O	inactive
O=S(=O)(NCCCNc1nccc(-c2c(-c3ccc(F)c(O)c3)nc3sccn23)n1)c1ccc(Cl)cc1	inactive
COc1cccc(-c2nc3sccn3c2-c2ccnc(NCCCNS(=O)(=O)c3ccc(F)cc3)n2)c1	inactive
OCc1c(-c2ccccc2)nc2sccn12	inactive
Nc1nc(N)c2nc(CNc3ccc(C(=O)CC(CCC(=O)O)C(=O)O)cc3)cnc2n1 (configuration not stated)	active
